# Tested on: LOX IMVI melanoma
# assay-overview: NCI-60 one-dose screen, 48 h
# measurement-context: 10 µM unless noted
About 83,000 compounds went through this panel and 20% of them were active in at least one assay; those are over-represented in the sample as a whole. The source made the active and inactive calls. How the source made its calls: active means growth percent below 10; inactive means the rest.
Mark one answer only. Choices: active, inactive

*Q* I would be grateful if you could indicate the recorded call for "O=C(N=Nc1c(O)[nH]c2ccccc12)c1cc(-c2ccccc2)on1" .
*A* inactive

*Q* Also check "COc1ccc(CN2c3ccccc3Oc3ccccc32)cc1O"
*A* inactive

*Q* Next up: CCN1CCC2(CC1)NC(=O)c1c(c3ccc(Cl)c(Cl)c3n1C)C2C#N (stereo unspecified)
*A* inactive

*Q* Same again, this time with "COc1ccc(S(=O)(=O)N2CCCCCC2)cc1NC(=O)c1[nH]c(C)c2c1CCCCC2=O"
*A* active

*Q* Next compound up: "CCOc1ccc(-n2nc(C(=O)Nc3ccccc3)nc2-c2cc(OC)c(OC)c(OC)c2)cc1"
*A* inactive

*Q* How about this compound: "CC(=O)Nc1ccc(S(=O)(=O)Nc2cccc(-c3nc(-c4ccc(NC(=O)c5cccnc5)cc4Cl)no3)c2)cc1"
*A* inactive

*Q* Follow-up item: "CN1CCN(c2ccc3nc(-c4ccc(OCCCCN5CCN(CCCCN6C(=O)c7cccc8cccc(c78)C6=O)CC5)cc4)[nH]c3c2)CC1"
*A* inactive

*Q* What do you get for C/C1=C\CC[C@@]2(C)O[C@H]2[C@H]2OC(=O)C(CN3CCN(CC4C(=O)O[C@H]5[C@H]4CC/C(C)=C/CC[C@@]4(C)O[C@@H]54)CC3)[C@@H]2CC1 (stereo partly specified) ?
*A* inactive

*Q* Next up: Nc1n[nH]c2ccc([C@@H]3Nc4ccc5cn[nH]c5c4[C@H]4C5CCC(C5)[C@@H]34)cc12 (stereo partly specified)
*A* inactive

*Q* Subsequent entry: "COc1cc(/C=C/C(=O)c2c(C)oc3nc[nH]c(=O)c23)cc(OC)c1OC"
*A* inactive

*Q* Input "COc1ccc(-c2nc3ccc(-c4nc5ccc(N6CCN(C)CC6)cc5[nH]4)cc3[nH]2)cc1OC"
*A* inactive

*Q* Here is the next compound: CCc1nc(N)nc(N)c1C#CC(C)c1ccc(-c2ccncc2)cc1Cl (stereo unspecified)
*A* inactive

*Q* Another: "COc1ccc(/C=C2\Oc3cc(OCCCCN4CCCC4)ccc3C2=O)cc1"
*A* active

*Q* What do we get for "O=C1Nc2cc(-c3ccc(O)cc3)ccc2/C1=C/c1ccc[nH]1" ?
*A* active

*Q* And what about the compound "O=c1c2c3c(sc2nc(N/N=C/c2cn(-c4ccccc4)nc2-c2ccc(Cl)cc2)n1Cc1ccccc1)CCCC3" ?
*A* inactive

*Q* What about "CC/C=C\C/C=C\C[C@H]1C/C=C2/C(=O)C=C[C@@H]2C/C=C\CCC(=O)O1" ?
*A* active

*Q* Now the compound "O=C1c2cc3c(cc2-c2c1c1ccc(F)cc1c(=O)n2C[C@H](O)[C@H](O)[C@H](O)CO)OCO3"
*A* active

*Q* Queued: "CSc1nc(Nc2cccc(NC(=O)/C(C#N)=C/c3c(Cl)cccc3Cl)c2)c(C#N)c(-c2cccc([N+](=O)[O-])c2)n1"
*A* active

*Q* Do the same for OC(COc1cccc2ccccc12)CN1CCN(c2ccccc2Cl)CC1 (stereo unspecified) please
*A* inactive

*Q* Next compound: "CCCCN(CCCC)CCCn1c(-c2ccccc2)ccc1-c1ccccc1"
*A* inactive

*Q* Can you check "O=C1c2c(O)cc(O)cc2-c2c(-c3ccc(O)cc3)oc3cc(O)cc1c23" next?
*A* inactive

###

# Test system: EKVX NSCLC
# assay-overview: NCI-60 one-dose screen, 48 h (100 = growth as untreated, 0 = no growth, -100 = all killed)
# measurement-context: 10 µM unless noted
Compounds without any hit were thinned out: in the full panel of roughly 83,000, 20% have a hit.
Checkbox rule: growth lower than 70% = criterion met; growth not lower than 70% = criterion not met.

*Q* Is growth strictly under 70% for the entry "COc1ccc(C(=O)COc2ccc(/C=C3\COc4ccc(OC)cc4C3=O)cc2)cc1" ?
*A* criterion not met

*Q* Cool, now Nc1n[nH]c2ccc([C@@H]3Nc4ccc5cn[nH]c5c4[C@H]4C5CCC(C5)[C@@H]34)cc12 (stereo partly drawn)
*A* criterion met

*Q* Field entry: "NC(=O)c1cc(Cl)ccc1NC(=O)/C=C/c1ccccc1"
*A* criterion met

*Q* Moving on to the next compound: "CCOC(=O)n1cc(-c2nonc2-c2cn(C)c3ncccc23)c2cc(F)ccc21"
*A* criterion met

*Q* What would you report for "COc1cccc(/C=N/NC(=O)c2ccccc2Nc2ccnc(C(F)(F)F)c2)c1O" ?
*A* criterion met

*Q* Thanks! And "O=C1NC(=S)N[C@H]1CC(=O)n1cnc2ccccc21" ?
*A* criterion not met

*Q* Would you kindly repeat that for Cc1ccc(C2=NN3C(C2)c2cc(Br)ccc2OC32CCN(Cc3ccccc3)CC2)o1 (stereo not drawn) ?
*A* criterion not met

###

# System: SK-OV-3 ovarian
# assay-overview: NCI-60 one-dose screen, 48 h (100 = growth as untreated, 0 = no growth, -100 = all killed)
# measurement-context: 10 µM unless noted
About 83,000 compounds went through this panel and 20% of them were active in at least one assay; those are over-represented in the sample as a whole.
API: label(entry) gives label 1 if the entry's growth is strictly smaller than 90%; on equality or larger values it gives label 0.

*Q* Given COc1ccc(C2Nc3c(c(C(C)(C)C)nn3-c3ccccc3)C(=O)CS2)cc1 (stereo unspecified) , is recorded growth strictly lower than 90%?
*A* label 0

*Q* Next molecule: "Cc1ccc(OC(=O)c2ccc(Cl)cc2)cc1"
*A* label 0

*Q* Param item: "CN(C)c1ccc(N=Nc2ccc(Br)cn2)c(O)c1"
*A* label 1

*Q* Now this one: Cc1ccc(C2=NN3C(C2)c2cc(Br)ccc2OC32CCN(Cc3ccccc3)CC2)o1 (stereo unspecified)
*A* label 0

*Q* Also need "CCOC(=O)c1c(C)oc2ncnc(N3CCN(C(=O)COc4ccc(SC)cc4)CC3)c12" , thanks.
*A* label 1

*Q* Would you mind doing "O=C(/C=C/c1cccc([N+](=O)[O-])c1)c1ccc(O)c(CN2CCN(c3cc4c(cc3F)c(=O)c(C(=O)O)cn4C3CC3)CC2)c1" as well?
*A* label 1

*Q* Would you kindly repeat that for "O=S(=O)(Nc1ccc(NS(=O)(=O)c2ccccc2)c(Cl)c1)c1ccccc1" ?
*A* label 0

*Q* And "C=C1c2nc3ccccc3n2C=C(c2cccc(Cl)c2)N1Cc1ccc(OC)cc1" ?
*A* label 1

*Q* Proceed to "NS(=O)(=O)c1ccc(CN=C2NC(=O)S/C2=C\c2ccc(Br)cc2)cc1"
*A* label 0

*Q* Moving on to the next molecule: "O=C1c2cc3c(cc2-c2c1c1cc(F)c(F)cc1c(=O)n2CCCn1ccnc1)OCO3"
*A* label 1

*Q* Quick one: "COc1cc(/C=C/c2cc(/C=C/c3ccc(O)c(OC)c3)n(-c3c(Cl)cccc3Cl)c(=O)n2)ccc1O"
*A* label 1

*Q* Now this one: "CCCCCCCCCCCCC[N+](C)(C)Cc1ccccc1"
*A* label 1

*Q* Try this molecule next: "O=C1/C(=C/C(Cl)=C/c2ccccc2)SC(=S)N1CCc1ccc(O)cc1"
*A* label 1

*Q* Also, CC[C@@H](C(=O)[C@@H](C)[C@@H](O)[C@H](C)[C@@H]1O[C@@H]([C@@H](CC)C(=O)O)CC[C@@H]1C)[C@H]1OC2(C=C[C@@H](O)[C@]3(CC[C@@](C)([C@H]4CC[C@](O)(CC)[C@H](C)O4)O3)O2)[C@H](C)C[C@@H]1C (stereo partly specified) please.
*A* label 1

###

# Test system: TK-10 renal
# assay-overview: NCI-60 one-dose screen, 48 h (100 = growth as untreated, 0 = no growth, -100 = all killed)
# measurement-context: 10 µM unless noted
# Method: Growth inhibition of the TK-10 human tumor cell line is measured as a screen for anti-cancer activity. Cells are grown in 96 well plates and exposed to the test compound for 48 hours. Compounds are tested at a single concentration, which is 10^-5 M for most compounds. The reported endpoint is percent growth (GI% or GIPRCNT), where numbers from 0 - 100% represent growth inhibition, and numbers from -100% - 0 represent cell death. For example, a value of 40 represents 60% growth inhibition. […]
The panel holds about 83,000 compounds, 20% with a hit somewhere; the sample as a whole holds those more often. Activity calls are given as the source filed them. How the source made its calls: active means growth percent below 10; inactive means the rest.
Give growth for every item shown.

*Q* I have this molecule here, "COc1ccc(-c2nc3ccc(-c4nc5ccc(N6CCN(c7ccc(F)cc7)CC6)cc5[nH]4)cc3[nH]2)cc1OC" , and I need its recorded growth.
*A* 133% (inactive)

*Q* Next up: "O=C1c2cc3c(cc2-c2c1c1ccc(F)cc1c(=O)n2CCCNCCO)OCO3"
*A* -18.9% (active)

*Q* And for "COc1ccc(/C=C2\Oc3cc(OCCCCN4CCCC4)ccc3C2=O)cc1" ?
*A* 98.1% (inactive)

*Q* What would you report for "Clc1ccc2c(NCCCCNc3nc(N4CCOCC4)nc4ccccc34)ccnc2c1" ?
*A* -63.1% (active)

*Q* Lookup "O=C(O)c1ccc(NC(=O)c2ccc(-c3cccc([N+](=O)[O-])c3)o2)cc1"
*A* 102% (inactive)

*Q* What do we get for "Nc1nc2ncc(CCNc3ccc(C(=O)O)cc3)nc2c(=O)[nH]1" ?
*A* 103% (inactive)

*Q* Same for "COc1ccc(-c2cc(=O)c3c(OC)c4ccoc4cc3o2)cc1"
*A* 108% (inactive)

*Q* For "COc1cc2c(cc1-c1c(C)noc1C)ncc1nc(-c3ccccn3)n([C@H](C)COC(F)F)c12" then?
*A* 33% (inactive)

*Q* Same question, "COc1cc(/C=C/c2cc(O)c3cc(C(C)=O)c(=O)oc3c2)cc2c1O[C@]1(C)CC[C@@H](O)C(C)(C)[C@H]1C2" this time
*A* 97.9% (inactive)

*Q* Could you do the same for "COc1cccc(/C=C2\SC(=Nc3ccc(NC(C)=O)cc3)NC2=O)c1OC" , please?
*A* 97.7% (inactive)

*Q* Can you handle "O=C1/C(=C/c2cn(-c3ccccc3)nc2-c2ccccc2)SC(=S)N1CCc1ccccc1" next?
*A* 106% (inactive)

*Q* What do we get for Nc1n[nH]c2ccc([C@@H]3Nc4ccc5[nH]ncc5c4[C@H]4C5C=CC(C5)[C@@H]34)cc12 (some centres not stated) ?
*A* 67.5% (inactive)

Origin of measurements: PubChem BioAssay (NCI)
